Assayed target: Regulator of G-protein signaling 19 (Homo sapiens)
Sequence (P49795 whole entry): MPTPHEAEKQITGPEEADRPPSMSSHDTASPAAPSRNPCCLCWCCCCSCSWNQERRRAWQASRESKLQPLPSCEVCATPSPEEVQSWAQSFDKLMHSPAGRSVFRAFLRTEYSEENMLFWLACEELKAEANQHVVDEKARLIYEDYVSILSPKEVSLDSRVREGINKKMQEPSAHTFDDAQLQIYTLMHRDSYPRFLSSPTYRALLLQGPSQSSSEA
Protocol text: analogs regulating RGS19 interaction with Gαo – biochemical, SAR compounds, multiplexed bead flow cytometry, SAR follow-up (AID 2311)
Record form. Attribute: EC50. Fill in for each entry.
Give bare numbers, in nM.

compound=CN=c1scc(C)n1N=Cc1ccc(O)c(O)c1O quantity=EC50 readout_unit=nM quantitative_readout=209
compound=Cc1cc(Cl)ccc1/N=c1/ssnc1Cl quantity=EC50 readout_unit=nM quantitative_readout=115
compound="Cc1cccc(N2CCN(C(=O)COc3nsc4nc(C)cc(C)c34)CC2C)c1 (stereo not given)" quantity=EC50 readout_unit=nM quantitative_readout=590
compound=O=C(Cc1csc(N2CCOCC2)n1)NN=Cc1ccc(O)c(O)c1O quantity=EC50 readout_unit=nM quantitative_readout=794

List the reported EC50 of each compound below.
1. Cc1cccc(N2CCN(C(=O)Cn3sc4nc(C)cc(C)c4c3=O)CC2C)c1 (stereo not given)
2. Cc1[nH]n(-c2ccccc2)c(=S)c1C=NCCCN=Cc1c(C)[nH]n(-c2ccccc2)c1=S
3. CCC(=O)NC(c1ccc(C)cc1)c1cc([N+](=O)[O-])c2cccnc2c1O (stereo not given)
4. O=C(NCCCN1CCOCC1)c1sc2cc([N+](=O)[O-])ccc2c1Cl
5. O=C1C(Cl)=C(N2CCCCC2)C(=O)C(Cl)=C1c1cnc(N2CCCCC2)s1
6. COc1ccc(C2=CC(=O)C=CC2=O)cc1

100
56
1240
488
82
169

Please give EC50, item by item, for the list that follows.
1. CC(=O)OCCCNc1cc(Sc2nc3ccccc3s2)c2nonc2c1[N+](=O)[O-]
2. CCN=c1scc(C)n1N=Cc1ccc(O)c(O)c1O
3. CC1(C)OC(=O)C(=Cc2ccc(-c3ccc(S(N)(=O)=O)cc3)o2)C(=O)O1
4. CN1CCN(C2=C(Cl)C(=O)C(c3cnc(N4CCCCC4)s3)=C(Cl)C2=O)CC1
5. NS(=O)(=O)c1ccc(N=NCc2ccc(O)c(O)c2O)c([N+](=O)[O-])c1
6. CCOC(=O)c1sc(NC(=O)CSc2nnc(Cc3ccccc3)o2)c(C#N)c1C

1: 16; 2: 378; 3: 245; 4: 27; 5: 109; 6: 155

Where do the numbers come from? From BindingDB's records for doi:10.7270/Q2BG2MFK.
